Values compiled from paper PMC3654042.

- Tested on: human lung cancer A549 cells
- protocol.details: Cell viability
- Format: cell-based
- test.context: Homo sapiens, A549, read-out: EC50 cell degeneration
reported.property: pEC50
pEC50 (log units): -log10 of the concentration in mol/L.

If you can, please state the reported pEC50 value of CC1COCc2cc3c(cc21)C(C)(C)C(C)C3(C)C (stereo not shown) [Galaxolide] . 4.24

----------
- assay.system: purified porcine liver PMPMEase (Sus scrofa, UniProt Q29550)
- Sequence (Q29550 19-566): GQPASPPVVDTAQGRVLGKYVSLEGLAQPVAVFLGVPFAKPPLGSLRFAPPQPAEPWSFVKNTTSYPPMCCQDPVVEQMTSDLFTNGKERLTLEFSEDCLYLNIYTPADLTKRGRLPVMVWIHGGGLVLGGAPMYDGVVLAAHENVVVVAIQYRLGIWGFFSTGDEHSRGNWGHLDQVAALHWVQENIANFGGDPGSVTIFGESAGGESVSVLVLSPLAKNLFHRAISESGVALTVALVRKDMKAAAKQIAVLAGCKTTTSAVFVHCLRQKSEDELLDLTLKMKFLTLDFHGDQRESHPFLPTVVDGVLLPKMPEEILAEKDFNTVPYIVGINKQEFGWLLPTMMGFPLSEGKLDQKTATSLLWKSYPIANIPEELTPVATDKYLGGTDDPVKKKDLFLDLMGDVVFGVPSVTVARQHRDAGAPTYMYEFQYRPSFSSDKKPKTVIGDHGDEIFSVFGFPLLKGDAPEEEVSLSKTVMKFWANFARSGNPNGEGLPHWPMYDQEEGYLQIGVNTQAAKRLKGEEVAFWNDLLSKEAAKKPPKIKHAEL
- protocol.details: Inhibition of purified porcine liver PMPMEase
- Type: biochemical
- test.context: purified porcine liver PMPMEase, RD-PNB substrate
# key: entry, value: Ki
Reply numerically in µM, unit not repeated.

>  <compound>
CC(=O)c1cc2c(cc1C)C(C)(C)C(C)CC2(C)C (stereo not shown) [Tonalide]

>  <result.units>
µM

>  <Ki>
14

$$$$

# input compound: CCCCCCCCC1CCC(=O)O1 (stereo not shown) ; wanted: its Ki 12

Could you tell me which Ki is on file for O=C1CCCCCCCCCCCCCCO1 ? 46

So what does the record say about Ki for CC1=C(C=O)C(C)(C)CCC1 ? 4
